Ref: the supplement of paper PMC7125110

B1: glmS ribozyme (parent)
chain: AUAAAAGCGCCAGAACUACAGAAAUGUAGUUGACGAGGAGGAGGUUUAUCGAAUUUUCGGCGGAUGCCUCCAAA

- Variants of: B1
- TEST_METHOD_NOTES: self-cleavage kobs at 40 uM GlcN6P; higher = faster cleavage; RNA array
- CONDITIONS_USED: with glucosamine-6-phosphate
Variants at the floor of the assay were thinned out.

VARIANT_CODE: A6C C50A
self-cleavage kobs at 40 uM GlcN6P: < 1e-05 s⁻¹
//
VARIANT_CODE: G13A G41U
self-cleavage kobs at 40 uM GlcN6P: < 1e-05 s⁻¹
//
VARIANT_CODE: A6C C34A C58A
self-cleavage kobs at 40 uM GlcN6P: < 1e-05 s⁻¹
//
VARIANT_CODE: G7C G38U C70G
self-cleavage kobs at 40 uM GlcN6P: < 1e-05 s⁻¹
//
VARIANT_CODE: G40A A48U C61G
self-cleavage kobs at 40 uM GlcN6P: < 1e-05 s⁻¹
//
VARIANT_CODE: U31C G40A G59U
self-cleavage kobs at 40 uM GlcN6P: < 1e-05 s⁻¹
//
VARIANT_CODE: G7C G43U
self-cleavage kobs at 40 uM GlcN6P: < 1e-05 s⁻¹
//
VARIANT_CODE: G37A A39U A42G C50U
self-cleavage kobs at 40 uM GlcN6P: < 1e-05 s⁻¹
//
VARIANT_CODE: U30G U46G
self-cleavage kobs at 40 uM GlcN6P: 4.16e-05 s⁻¹
//
VARIANT_CODE: A36G C67U
self-cleavage kobs at 40 uM GlcN6P: < 1e-05 s⁻¹
//
VARIANT_CODE: G60A C67U
self-cleavage kobs at 40 uM GlcN6P: < 1e-05 s⁻¹
//
VARIANT_CODE: A12C G26U
self-cleavage kobs at 40 uM GlcN6P: 0.000614 s⁻¹
//
VARIANT_CODE: G13C A36G A39U
self-cleavage kobs at 40 uM GlcN6P: < 1e-05 s⁻¹
//
VARIANT_CODE: A14C U57C U69C
self-cleavage kobs at 40 uM GlcN6P: < 1e-05 s⁻¹
//
VARIANT_CODE: G60U U69G
self-cleavage kobs at 40 uM GlcN6P: < 1e-05 s⁻¹
//
VARIANT_CODE: C11A A15C C50G
self-cleavage kobs at 40 uM GlcN6P: 0.000118 s⁻¹
//
VARIANT_CODE: U54C G66U
self-cleavage kobs at 40 uM GlcN6P: 6.62e-05 s⁻¹
//
VARIANT_CODE: C8U A15G C34U G35U A36U C68A
self-cleavage kobs at 40 uM GlcN6P: < 1e-05 s⁻¹
//
VARIANT_CODE: U47A C50G C68A
self-cleavage kobs at 40 uM GlcN6P: 0.000209 s⁻¹
//
VARIANT_CODE: G37U U65G
self-cleavage kobs at 40 uM GlcN6P: < 1e-05 s⁻¹
//
VARIANT_CODE: C10U C50A
self-cleavage kobs at 40 uM GlcN6P: < 1e-05 s⁻¹
//
VARIANT_CODE: C61U C71A
self-cleavage kobs at 40 uM GlcN6P: < 1e-05 s⁻¹
//
VARIANT_CODE: A12U G29A U56C
self-cleavage kobs at 40 uM GlcN6P: 0.000118 s⁻¹
//
VARIANT_CODE: C16U G29U
self-cleavage kobs at 40 uM GlcN6P: 0.000315 s⁻¹
